assay method text: self-splicing fitness, log relative to wild type (ln ratio); higher = more splicing; Tetrahymena group I intron in knt gene, E. coli kanamycin selection, DiMSum; sequences stand for … in CUCUCU…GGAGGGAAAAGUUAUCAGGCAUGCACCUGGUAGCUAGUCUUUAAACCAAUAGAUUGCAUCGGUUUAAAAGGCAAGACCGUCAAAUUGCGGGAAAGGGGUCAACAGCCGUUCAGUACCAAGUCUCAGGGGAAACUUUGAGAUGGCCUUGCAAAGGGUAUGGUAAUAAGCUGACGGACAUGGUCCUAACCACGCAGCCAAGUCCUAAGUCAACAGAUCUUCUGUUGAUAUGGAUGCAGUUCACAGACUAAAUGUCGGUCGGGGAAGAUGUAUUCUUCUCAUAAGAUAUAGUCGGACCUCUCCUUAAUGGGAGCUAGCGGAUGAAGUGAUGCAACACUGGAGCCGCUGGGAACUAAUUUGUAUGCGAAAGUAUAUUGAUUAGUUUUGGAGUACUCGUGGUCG;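 note: selection with 25 µg/mL kanamycin versus none on LB agar overnight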
assay setup: 37 °C
quantity: self-splicing fitness (ln)
Lab note: record the figure alone, no unit after it.

Can you share its self-splicing fitness (ln)? I mean this sequence: AAUGAGCAAUAUUACGGUGU
-2.55

Repeat for the following sequence: UCAGAGCAAUAUUACGUUGA
-1.54

Now consider CGGCAGCAAUAUUACGUCCA and answer again.
-0.521

Same read-out for CACAAGCAAUAUUACGCCAC ?
-1.43

Next: UCAGAGCAAUAUUACGAUAA
-2.46

Try the sequence ACUAAGCAAUAUUACGCCCG
0.678

Same for CAUCAGCAAUAUUACGUCUG
0.264

Would you mind doing AAUCAGCAAUAUUACGGUUG as well?
-0.913

Another: AAAUAGCAAUAUUACGUUCC
-1.1

Entry to check: UGAAAGCAAUAUUACGGAGC
-2.81

For ACAUAGCAAUAUUACGGAGG then?
-0.703

Try the sequence UAAAAGCAAUAUUACGUCAG
-0.962

Then GUGGAGCAAUAUUACGGUGU ?
-1.78

Entry to check: CGACAGCAAUAUUACGCACA
0.097

Follow-up entry: CAUAAGCAAUAUUACGAGGA
-2.23

Now try UGAAAGCAAUAUUACGGUUG .
-0.865

---

assay method text: self-splicing fitness, log relative to wild type (ln ratio); higher = more splicing; Tetrahymena group I intron in knt gene, E. coli kanamycin selection, DiMSum; sequences stand for … in CUCUCU…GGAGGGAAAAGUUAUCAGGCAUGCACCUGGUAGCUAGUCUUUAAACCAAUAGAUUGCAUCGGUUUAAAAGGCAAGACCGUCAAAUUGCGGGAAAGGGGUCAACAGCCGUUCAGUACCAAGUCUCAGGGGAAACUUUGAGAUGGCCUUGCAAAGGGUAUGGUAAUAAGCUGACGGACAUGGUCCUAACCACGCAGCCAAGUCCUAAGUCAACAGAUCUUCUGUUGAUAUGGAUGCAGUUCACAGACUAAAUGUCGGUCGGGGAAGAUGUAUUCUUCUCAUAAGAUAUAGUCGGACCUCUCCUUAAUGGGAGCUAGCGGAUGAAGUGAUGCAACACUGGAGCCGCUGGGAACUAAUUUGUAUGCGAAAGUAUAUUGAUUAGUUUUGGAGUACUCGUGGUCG
assay setup: 37 °C
quantity: self-splicing fitness (ln)
// no unit, no text: just the number

Request the reported self-splicing fitness (ln) associated with CUCUAGCAAUAUUACGGCGG
-3.12

Quick one: CAAUAGCAAUAUUACGAGAG
-1.52

Then GGUAAGCAAUAUUACGCAGG ?
-1.29

Next entry: GUCGAGCAAUAUUACGCGGU
-1.94

Check ACUCAGCAAUAUUACGUCCG too.
-1.21

Next entry: AUGGAGCAAUAUUACGCCCA
-1.03

Then this sequence: GGCGAGCAAUAUUACGGGGG
-2.64

Field entry: CAUCAGCAAUAUUACGCAGC
-1.29

Moving on to GGCAAGCAAUAUUACGGCCC
-1.85

Proceed to UCAUAGCAAUAUUACGGGAA
-1.1

Same again, this time with AGUUAGCAAUAUUACGGGAC
-0.241

Also, UGUCAGCAAUAUUACGGCCU please.
0.483

Would you mind doing UUAUAGCAAUAUUACGAAAU as well?
-1.34

Can you handle GAGAAGCAAUAUUACGCGGU next?
-0.663

// query: AAGUAGCAAUAUUACGUAUG
-1.4

# repeat for CGAAAGCAAUAUUACGUUCG
-2.62
